Would you mind telling me the reported Ratio (-BP/+BP), DF-100,000 of each entry?
- System Under Test: T1, human IL-18 binding protein (human, UniProt O95998 31-194)
- T1 sequence (looked up): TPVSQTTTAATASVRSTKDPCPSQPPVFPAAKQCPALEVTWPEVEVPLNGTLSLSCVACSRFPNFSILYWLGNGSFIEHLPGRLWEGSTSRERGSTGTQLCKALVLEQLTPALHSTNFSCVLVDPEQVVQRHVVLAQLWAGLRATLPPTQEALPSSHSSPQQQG
- Measurement Description: cell-based or functional assay
Numbers only.

Some solved cases for reference:
- Binder: "yeast display IL-18 variant K53D, S55N (ligand) YFGKLESKLSVIRNLNDQVLFIDQGNRPLFEDMTDSDMRDNAPRTIFIISMYDDNQPRGMAVTISVKSEKISTLSSENKIISFKEMNPPDNIKDTKSDIIFFQRSVPGHDNKMQFESSSYEGYFLASEKERDLFKLILKKEDELGDRSIMFTVQNED"
  Ratio (-BP/+BP), DF-100,000: 1.05
- Binder: "yeast display IL-18 variant S36E, D37E, D40K, N41T, K53T, S55Q, R104H (ligand) YFGKLESKLSVIRNLNDQVLFIDQGNRPLFEDMTDEEMRKTAPRTIFIISMYTDQQPRGMAVTISVKSEKISTLSSENKIISFKEMNPPDNIKDTKSDIIFFQHSVPGHDNKMQFESSSYEGYFLASEKERDLFKLILKKEDELGDRSIMFTVQNED"
  Ratio (-BP/+BP), DF-100,000: 1.01
- Binder: "yeast display IL-18 variant T34I, S36T, D40A, N41M, K53T, S55Y (ligand) YFGKLESKLSVIRNLNDQVLFIDQGNRPLFEDMIDTDMRAMAPRTIFIISMYTDYQPRGMAVTISVKSEKISTLSSENKIISFKEMNPPDNIKDTKSDIIFFQRSVPGHDNKMQFESSSYEGYFLASEKERDLFKLILKKEDELGDRSIMFTVQNED"
  Ratio (-BP/+BP), DF-100,000: 1.45
- Binder: "yeast display IL-18 variant K53T, S55A (ligand) YFGKLESKLSVIRNLNDQVLFIDQGNRPLFEDMTDSDMRDNAPRTIFIISMYTDAQPRGMAVTISVKSEKISTLSSENKIISFKEMNPPDNIKDTKSDIIFFQRSVPGHDNKMQFESSSYEGYFLASEKERDLFKLILKKEDELGDRSIMFTVQNED"
  Ratio (-BP/+BP), DF-100,000: 1
- Binder: "yeast display IL-18 variant K53Y, S55Y (ligand) YFGKLESKLSVIRNLNDQVLFIDQGNRPLFEDMTDSDMRDNAPRTIFIISMYYDYQPRGMAVTISVKSEKISTLSSENKIISFKEMNPPDNIKDTKSDIIFFQRSVPGHDNKMQFESSSYEGYFLASEKERDLFKLILKKEDELGDRSIMFTVQNED"
  Ratio (-BP/+BP), DF-100,000: 1.21

Look at each binder and report its Ratio (-BP/+BP), DF-100,000.
1. yeast display IL-18 variant K53G, S55V (ligand) YFGKLESKLSVIRNLNDQVLFIDQGNRPLFEDMTDSDMRDNAPRTIFIISMYGDVQPRGMAVTISVKSEKISTLSSENKIISFKEMNPPDNIKDTKSDIIFFQRSVPGHDNKMQFESSSYEGYFLASEKERDLFKLILKKEDELGDRSIMFTVQNED
2. yeast display IL-18 variant T34I, S36V, D40I, N41M, K53G, S55Y (ligand) YFGKLESKLSVIRNLNDQVLFIDQGNRPLFEDMIDVDMRIMAPRTIFIISMYGDYQPRGMAVTISVKSEKISTLSSENKIISFKEMNPPDNIKDTKSDIIFFQRSVPGHDNKMQFESSSYEGYFLASEKERDLFKLILKKEDELGDRSIMFTVQNED

Response line:
1. 1.01
2. 1.11
